- Assay details: Mouse pharmacokinetic study, plasma exposure after IP dosing
- Assay type: in vivo, BALB/c mice
- Condition label: IP 10 mg/kg, female BALB/c mice, without ABT
Measurement name: Cmax (nM)
Express the result in nM but write the number alone.

# input Quote Cmax reported for CCC(=O)NC[C@H](Cc1ccc(OCCc2nc(-c3ccccc3)oc2C)cc1)N/C(C)=C\C(=O)c1ccc(C(F)(F)F)cc1 please.
# output 1180

Source: paper PMC8692993
